- Test System: T1, Fc fused human IL-18Rα (human, UniProt Q13478 19-329, limits assumed)
- T1 construct: also called IL-18Rα monomer; IL-18 receptor alpha; not shown: Fc part
- T1 sequence (looked up): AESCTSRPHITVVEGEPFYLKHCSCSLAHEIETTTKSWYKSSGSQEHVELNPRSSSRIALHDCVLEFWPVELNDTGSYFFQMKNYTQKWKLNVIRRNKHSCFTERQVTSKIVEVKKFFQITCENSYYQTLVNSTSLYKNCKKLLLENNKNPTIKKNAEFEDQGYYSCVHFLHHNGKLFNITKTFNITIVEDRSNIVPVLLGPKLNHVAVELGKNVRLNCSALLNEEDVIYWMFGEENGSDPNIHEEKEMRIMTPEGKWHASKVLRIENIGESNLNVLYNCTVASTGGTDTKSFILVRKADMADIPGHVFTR
- Experiment: SPR, Fc-IL-18Rα captured, 1:1 model
Recorded measurements of koff, one per entry
Just the number in s⁻¹, nothing appended.

Please review the following examples before continuing.
| Binder | koff / s⁻¹ |
| --- | --- |
| Modified IL-18 polypeptide of SEQ ID NO: 22 (E06K, K53A, C38S, C68S, C76S, C127S, K70C) (ligand) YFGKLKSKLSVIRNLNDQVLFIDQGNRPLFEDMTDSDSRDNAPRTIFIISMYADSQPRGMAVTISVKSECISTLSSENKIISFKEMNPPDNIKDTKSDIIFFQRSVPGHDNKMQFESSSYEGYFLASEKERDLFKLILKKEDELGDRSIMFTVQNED | 0.0199 |
| Modified IL-18 polypeptide of SEQ ID NO: 2 (E06K, K53A, S55A) (ligand) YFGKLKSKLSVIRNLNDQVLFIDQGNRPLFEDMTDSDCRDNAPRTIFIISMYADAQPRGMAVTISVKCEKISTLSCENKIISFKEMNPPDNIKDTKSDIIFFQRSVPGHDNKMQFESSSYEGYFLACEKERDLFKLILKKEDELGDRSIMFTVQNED | 0.0627 |

Kindly review the next binder as well.
Lookup: Fill in reported koff for this entry: Modified IL-18 polypeptide of SEQ ID NO: 70 (E6K, K53A, C38S, C76S, C127S) (ligand) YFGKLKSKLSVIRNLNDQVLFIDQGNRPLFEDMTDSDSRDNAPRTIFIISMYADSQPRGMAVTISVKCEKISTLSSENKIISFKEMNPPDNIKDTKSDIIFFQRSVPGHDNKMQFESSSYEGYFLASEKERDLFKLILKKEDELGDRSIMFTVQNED
Found: 0.0369
